- subject_of_test: GK- W257 (W99R/W167F) (Homo sapiens, UniProt P35557, W167F/W99R)
- Sequence (P35557 whole entry W99R/W167F): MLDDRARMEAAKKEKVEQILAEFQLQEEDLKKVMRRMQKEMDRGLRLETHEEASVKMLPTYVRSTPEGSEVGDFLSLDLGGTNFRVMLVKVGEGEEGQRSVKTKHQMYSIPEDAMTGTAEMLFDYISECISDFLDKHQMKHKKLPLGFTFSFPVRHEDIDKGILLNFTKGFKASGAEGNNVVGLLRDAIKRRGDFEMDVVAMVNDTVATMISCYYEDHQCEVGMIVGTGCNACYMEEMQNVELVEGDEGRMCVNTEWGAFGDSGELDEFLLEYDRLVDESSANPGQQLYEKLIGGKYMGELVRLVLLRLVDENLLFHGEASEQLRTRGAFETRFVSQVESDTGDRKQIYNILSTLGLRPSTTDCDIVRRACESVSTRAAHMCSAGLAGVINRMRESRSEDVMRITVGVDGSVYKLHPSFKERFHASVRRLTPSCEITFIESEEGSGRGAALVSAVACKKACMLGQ
- method_summary: D-glucose binding by tryptophan fluorescence titration
- measurement_setup: W-257, no GKA, 20% glycerol
measurement_label: Kd (µM)
Give bare numbers, in µM.

Query: Reported Kd for OC[C@H]1OC(O)[C@H](O)[C@@H](O)[C@@H]1O (stereo partly shown) : what is it?
Response: 2090
